Test system: KB-3-1
Test: Cytotoxic Profiling of Annotated Libraries Using Quantitative High-Throughput Screening (AID 1296008); note: % is set by controls: 0 for no effect and ±100 for the full control effect; nearly all actives have a fitted effect of over 60% in size
Conditions: Five cell lines viability, CellTiter-Glo ATP luminescence, 48-72 h; hits give low values
Results filed as inconclusive are left out.
Parameter max response: see the listing below.
Write it as a number; the unit % goes unstated.

# Mol, Display unit, Numeric result
rows = [
    ("CCCCCCCCOc1ccccc1C(=O)Nc1ccc(C(=O)OCC[N+](C)(CC)CC)cc1", "%", 3.44),
    ("CC(C)[C@H](N)C(=O)OCCOCn1cnc2c(=O)[nH]c(N)nc21", "%", 10.2),
    ("CCOC(=O)C1=C(O)C(=O)N(Cc2ccccc2)C1", "%", 3.01),
    ("CCC[C@@H]1C[C@@H](C(=O)N[C@@H]([C@H]2O[C@H](SC)[C@H](O)[C@@H](O)[C@H]2O)[C@@H](C)O)N(C)C1", "%", -5.54),
    ("C[C@@H](c1ncncc1F)[C@](O)(Cn1cncn1)c1ccc(F)cc1F", "%", -4.61),
    ("Cc1cc2cc3c(C)cc(=O)oc3c(C)c2o1", "%", -3.63),
    ("CC(C)c1ccc2c(c1)c(SC(C)(C)C)c(CC(C)(C)C(=O)O)n2Cc1ccc(Cl)cc1", "%", -8.99),
    ("Clc1ccc2c(N3CCN(CCCN4CCN(c5ccnc6cc(Cl)ccc56)CC4)CC3)ccnc2c1", "%", 3.7),
]

Looking for the measured max response of Cc1cccc(C#Cc2ccccc2)n1 , can you help?
9.05

Which max response reading was recorded for the molecule CCOc1cc(CC(=O)N[C@@H](CC(C)C)c2ccccc2N2CCCCC2)ccc1C(=O)O ?
4.6

---

System: CP185
Test: qHTS profiling for inhibitors of Plasmodium falciparum proliferation (AID 504749); note: nearly all actives have a fitted effect of over 60% in size
Conditions: P. falciparum in erythrocytes, SYBR Green DNA, 72 h; series mostly up to 28.7 µM
Records with an inconclusive call do not appear. The source made the active and inactive calls. The call rests on the fitted dose curve; in most records, active means well fitted inhibition curve with a large enough effect; inconclusive means small, poorly fitted or top-dose-only effect; inactive means flat fitted curve, though single readings scatter. Peptide text beside a SMILES is read from it.
Please answer using one outcome listed in t = active, f = inactive

Worked examples follow.
# Molecule, Group label
rows = [
    ("CCN(CCO)CCCC(C)Nc1ccnc2cc(Cl)ccc12 (stereo not drawn)", "f"),
    ("Oc1ccc(OCc2ccccc2)cc1", "f"),
    ("O=C(CS(=O)Cc1ccco1)NCC=CCOc1cc(CN2CCCCC2)ccn1 (stereo not drawn)", "f"),
    ("CN(C)c1ccc2nc3ccc(=[N+](C)C)cc-3sc2c1", "t"),
    ("Cc1c(OCC(F)(F)F)ccnc1CS(=O)c1nc2ccccc2[nH]1 (stereo not drawn)", "f"),
]

Which outcome was entered for the molecule CCC1=C(C)CN(C(=O)NCCc2ccc(S(=O)(=O)NC(=O)NC3CCC(C)CC3)cc2)C1=O (stereo not drawn) in this test?
f

Hello, I am checking results. What call was entered for Cc1cc2c(s1)Nc1ccccc1N=C2N1CCN(C)CC1 ?
f

Field: outcome | Entry: CN1C(C(=O)Nc2ccccn2)=C(O)c2sccc2S1(=O)=O
f

Check the results log: what was the call for CCOc1cc(CC(=O)N[C@@H](CC(C)C)c2ccccc2N2CCCCC2)ccc1C(=O)O ?
f

# outcome recorded in this test, key = CCN(CC)CCOc1ccc(Cc2ccccc2)cc1
f

Lab log entry: CC(C)[C@H](N)C(=O)OCCOCn1cnc2c(=O)[nH]c(N)nc21 — outcome as called in the assay?
f

// outcome(item) with item = O=P(O)(O)C(O)(Cn1ccnc1)P(=O)(O)O
f

Assay result, entry Cc1ccc(C)c(OCCCC(C)(C)C(=O)O)c1 — outcome?
f

What was the test verdict on O=C(NCCO[N+](=O)[O-])c1cccnc1 ?
f

Dear all, I need the recorded test outcome for CN(C)C(=O)COC(=O)Cc1ccc(OC(=O)c2ccc(N=C(N)N)cc2)cc1 , thank you.
f

Check the results log: what was the call for COC(=O)[C@H](Cc1ccccc1)NC(=O)[C@@H](N)CC(=O)O (H-Asp-Phe-OMe) ?
f

Dear colleague, could you share the recorded outcome for O=C(O)c1cc(=O)c2c(OCC(O)COc3cccc4oc(C(=O)O)cc(=O)c34)cccc2o1 when you have a moment?
f

Answer briefly: the call reported for CC1(C)NC(=O)N(c2ccc([N+](=O)[O-])c(C(F)(F)F)c2)C1=O in this assay.
f

---

Test: Quantitative High-Throughput drug screen in 47 multiple myeloma cell lines against the NCATS MIPE library collection: JIM1_ECACC cell viability assay (AID 1918964)
Conditions: JIM1 myeloma viability, CellTiter-Glo ATP luminescence, 48 h; series mostly up to 45.8 µM
Results filed as inconclusive are left out. Calls of active or inactive are those of the source. The call rests on the fitted dose curve; in most records, active means well fitted cell-killing curve with a large enough effect; inconclusive means small, poorly fitted or top-dose-only effect, or effect the other way; inactive means no such curve, though single readings can be large or run the other way.
Your response should consist of one outcome taken from active, inactive

Field: example entries. Status: answers known.
# Molecule, Group label
rows = [
    ("Oc1ccc(OCc2ccccc2)cc1", "inactive"),
    ("CC(C)Oc1ccc2c(=O)c(-c3ccccc3)coc2c1", "inactive"),
    ("CC(S)C(=O)NCC(=O)O (stereo not drawn)", "inactive"),
    ("N[C@@H](Cc1cc(I)c(Oc2cc(I)c(O)c(I)c2)c(I)c1)C(=O)O", "active"),
    ("CC(=O)N1CCN(c2ccc(OC[C@H]3CO[C@](Cn4ccnc4)(c4ccc(Cl)cc4Cl)O3)cc2)CC1", "inactive"),
    ("COC(=O)C1=C(C)NC(C)=C(C(=O)OC(C)C)C1c1cccc2nonc12 (stereo not drawn)", "inactive"),
    ("Cc1cc(O)c2c(c1)C(=O)c1cc(O)cc(O)c1C2=O", "inactive"),
]

Outcome logged for C[C@H](Cn1cnc2c(N)ncnc21)OCP(=O)(O)O in this assay:
inactive

---

Test: qHTS drug screen for cell cycle checkpoint inhibitors in PARPi-resistant BRCA-mutant ovarian cancer cell lines. (AID 1963452)
Conditions: PEO1/OlaR viability, CellTiter-Glo luminescence, 96 h; hits give low values
Endpoint: Z-AUC
Form rule: numeric answer, no unit written next to it.

# Molecule, Z-AUC
records = [
    ("N=C(N)c1ccc2cc(OC(=O)c3ccc(N=C(N)N)cc3)ccc2c1", 0.0758),
    ("CCOC(=O)C1=C(O)C(=O)N(Cc2ccccc2)C1", 1.25),
]

Let us move to another entry and its Z-AUC.
Name the recorded Z-AUC for CCN(CC)CCOc1ccc(Cc2ccccc2)cc1 .
1.12

---

Molecular target: Thioredoxin reductase 1, cytoplasmic (Rattus norvegicus)
Assay: qHTS Assay for Inhibitors of Mammalian Selenoprotein Thioredoxin Reductase 1 (TrxR1) (AID 488773);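 note: drop in NADPH fluorescence over an 8 min run after selenite addition; % is set by controls: 0 for no effect and ±100 for the full control effect; nearly all actives have a fitted effect of over 40% in size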
Conditions: purified TrxR1 enzyme activity; inhibition; series mostly up to 57.1 µM
Records with an inconclusive call do not appear. Active and inactive are the calls of the source. Calls come from the whole dose curve; as a rule, active = well fitted inhibition curve with a large enough effect; inconclusive = small, poorly fitted or top-dose-only effect; inactive = no such curve, though single readings can be large or run the other way.
Please reply with one of these outcomes: yes = active, no = inactive

Reference set (4 entries):
# Molecule, Group label
data = [
    ("COc1ccccc1N1CCN(CCN(C(=O)C2CCCCC2)c2ccccn2)CC1", "no"),
    ("Nc1nc(N)c(N=O)c(OCC2CCCCC2)n1", "no"),
    ("CC(C)c1ccc2c(c1)c(SC(C)(C)C)c(CC(C)(C)C(=O)O)n2Cc1ccc(Cl)cc1", "no"),
    ("O=C(c1ccccc1)c1ccc2n1CCC2C(=O)O (configuration not stated)", "no"),
]

Kindly review the next molecule as well.
Check the results log: what was the call for COc1cc2c(cc1OC)C1CC(=O)C(CC(C)C)CN1CC2 (configuration not stated) ?
no

---

Assay: qHTS Screen of the MIPE 4.0 Collection Against Ewings Sarcoma (TC32) (AID 1259256); note: nearly all actives have a fitted effect of over 45% in size
Conditions: TC32 Ewing sarcoma viability, CellTiter-Glo, 48 h; series mostly up to 45.8 µM
Results filed as inconclusive are left out. Activity calls are given as the source filed them. Calls follow the shape of the dose curve; as a rule, active = well fitted inhibition curve with a large enough effect; inconclusive = small, poorly fitted or top-dose-only effect; inactive = no such curve, though single readings can be large or run the other way.
Would you mind answering with one of these outcomes? active, inactive

Before answering, review these 5 worked examples.
# Compound, Group label
rows = [
    ("CC(C)Oc1ccc2c(=O)c(-c3ccccc3)coc2c1", "inactive"),
    ("Cc1nc2n(c(=O)c1CCN1CCC(c3noc4cc(F)ccc34)CC1)CCCC2", "inactive"),
    ("Cc1nc(-c2ccc(OCC(C)C)c(C#N)c2)sc1C(=O)O", "inactive"),
    ("Cc1cc(C2CCCCC2)n(O)c(=O)c1", "active"),
    ("C[C@]12CCC(=O)C=C1CC[C@@H]1[C@H]2[C@@H](O)C[C@@]2(C)[C@H]1CC[C@]2(O)C(=O)CO", "inactive"),
]

Okay, next one:
Give the logged outcome of this assay for the following compound: O=C(CS(=O)Cc1ccco1)NCC=CCOc1cc(CN2CCCCC2)ccn1 (stereo unspecified)
inactive

---

Experiment: Quantitative High-Throughput drug screen in 47 multiple myeloma cell lines against the NCATS MIPE library collection: VP6_DJ cell viability assay (AID 1919867); note: potency is the fitted concentration of half-maximal effect; nearly all actives have a fitted effect of over 40% in size
Settings: ATP luminescence, 48 h; series mostly up to 45.8 µM
Inconclusive results are not listed. The source made the active and inactive calls. Calls follow the shape of the dose curve; as a rule, active = well fitted cell-killing curve with a large enough effect; inconclusive = small, poorly fitted or top-dose-only effect, or effect the other way; inactive = no such curve, though single readings can be large or run the other way.
Endpoint: Potency

# Mol, Endpoint, Result
data = [
    ("Cn1c(NCCN(CCO)CCCc2ccc([N+](=O)[O-])cc2)cc(=O)n(C)c1=O", "Potency", "18.7 µM (active)"),
    ("CCc1nc(N)nc(N)c1-c1ccc(Cl)cc1", "Potency", "3.32 µM (active)"),
    ("Nc1nc(Cl)nc2c1ncn2[C@H]1C[C@H](O)[C@@H](CO)O1", "Potency", "3.72 µM (active)"),
    ("COc1cc2c(N3CCN(C(=O)Nc4ccc(OC(C)C)cc4)CC3)ncnc2cc1OCCCN1CCCCC1", "Potency", "8.33 µM (active)"),
    ("NCCCCNCCCN", "Potency", "26.4 µM (active)"),
]

I am curious: what Potency value has been reported for O=C(NOCC1CC1)c1ccc(F)c(F)c1Nc1ccc(I)cc1Cl ?
4.69 µM (active)
